Recorded values, source patent EP0117578A2.

tested on: cucurbit powdery mildew (Sphaerotheca fuliginea); assay: Control of powdery mildew in cucumber; assay type: in vivo; set-up: key: O: Disease sign was detected for nearly 100 % area in the inoculated leaf surface; 3: Disease sign was detected for about 50 % area; 5: Disease sign was detected for about 30 % area; 7: Disease sign was detected for about 20 % area; 9: Disease sign was slightly detected; 10: No disease sign was detected; settings: 10 ml at 10 ppm applied to the soil before inoculation, degree of mildew infection 10 days after inoculation
measured-property: Soil application (10 ppm) Prevention
Give your answer as a number; write no unit.

Please review the entries below; each comes with its answer.
compound | Soil application (10 ppm) Prevention
OC(c1ccc(F)cc1)C(O)(Cn1cncn1)c1ccc(F)cc1 (stereo not shown) | 10
CCCC(=O)C(O)(Cn1cncn1)c1ccc(Cl)cc1Cl (stereo not shown) | 10

Kindly review the next compound as well.
Input: Specify reported Soil application (10 ppm) Prevention for the compound shown: CCCC(=O)C(O)(Cn1cncn1)c1ccccc1Cl (stereo not shown)
Output: 10

* * *

The following are reported MIC results, target or system Trichophyton asteroides.
Number only, in µg/mL; omit the unit.

Please review the entries below; each comes with its answer.
compound | MIC / µg/mL
CCCC(=O)C(O)(Cn1cncn1)c1ccccc1Cl (stereo not drawn) | 0.8
O=C(c1ccc(Cl)cc1Cl)C(O)(Cn1cncn1)c1ccc(Cl)cc1Cl (stereo not drawn) | 0.1
CCCCC(=O)C(O)(Cn1cncn1)c1ccc(Cl)cc1Cl (stereo not drawn) | 0.1
OC(c1ccc(Cl)cc1Cl)C(O)(Cn1cncn1)c1ccc(Cl)cc1Cl (stereo not drawn) | 0.1
O=C(c1cccc(Cl)c1)C(O)(Cn1cncn1)c1cccc(Cl)c1 (stereo not drawn) | 3.13

Input: Specify reported MIC for the compound shown: OC(c1ccccc1Cl)C(O)(Cn1cncn1)c1ccccc1Cl (stereo not drawn)
Output: 0.1

Input: Specify reported MIC for the compound shown: CCC(C)C(=O)C(O)(Cn1cncn1)c1ccc(Cl)cc1 (stereo not drawn)
Output: 0.1

Input: Specify reported MIC for the compound shown: O=C(c1ccccc1Cl)C(O)(Cn1cncn1)c1ccccc1Cl (stereo not drawn)
Output: 0.1

Input: Specify reported MIC for the compound shown: COc1ccc(C(=O)C(O)(Cn2cncn2)c2ccc(OC)cc2)cc1 (stereo not drawn)
Output: 12.5

* * *

The following are reported MIC results, target or system Trichophyton asteroides.
Note to self: number, then unit, no commentary.

Please review the entries below; each comes with its answer.
molecule | result
Cc1ccc(C(=O)C(O)(Cn2cncn2)c2ccc(C)cc2)cc1 (stereo not drawn) [compound 9] | 1.56 µg/mL
O=C(c1ccc(Cl)cc1Cl)C(O)(Cn1ccnc1)c1ccc(Cl)cc1Cl (stereo not drawn) [Compound No. 1] | 0.1 µg/mL
CCCC(O)C(O)(Cn1cncn1)c1ccc(Cl)cc1 (stereo not drawn) [compound 80] | 1.6 µg/mL
OC(c1ccc(F)cc1)C(O)(Cn1cncn1)c1ccc(F)cc1 (stereo not drawn) [compound 71] | 1.56 µg/mL
OC(c1ccc(F)cc1)C(O)(Cn1cncn1)c1ccc(Cl)cc1Cl (stereo not drawn) [compound 67] | 0.1 µg/mL

Input: Provide MIC, system Trichophyton asteroides, entry CCCC(=O)C(O)(Cn1cncn1)c1ccc(Cl)cc1Cl (stereo not drawn) [compound 25]
Output: 0.1 µg/mL
